Target: AHR (Homo sapiens)
Construct: endogenous in cells
Sequence (P35869 11-848): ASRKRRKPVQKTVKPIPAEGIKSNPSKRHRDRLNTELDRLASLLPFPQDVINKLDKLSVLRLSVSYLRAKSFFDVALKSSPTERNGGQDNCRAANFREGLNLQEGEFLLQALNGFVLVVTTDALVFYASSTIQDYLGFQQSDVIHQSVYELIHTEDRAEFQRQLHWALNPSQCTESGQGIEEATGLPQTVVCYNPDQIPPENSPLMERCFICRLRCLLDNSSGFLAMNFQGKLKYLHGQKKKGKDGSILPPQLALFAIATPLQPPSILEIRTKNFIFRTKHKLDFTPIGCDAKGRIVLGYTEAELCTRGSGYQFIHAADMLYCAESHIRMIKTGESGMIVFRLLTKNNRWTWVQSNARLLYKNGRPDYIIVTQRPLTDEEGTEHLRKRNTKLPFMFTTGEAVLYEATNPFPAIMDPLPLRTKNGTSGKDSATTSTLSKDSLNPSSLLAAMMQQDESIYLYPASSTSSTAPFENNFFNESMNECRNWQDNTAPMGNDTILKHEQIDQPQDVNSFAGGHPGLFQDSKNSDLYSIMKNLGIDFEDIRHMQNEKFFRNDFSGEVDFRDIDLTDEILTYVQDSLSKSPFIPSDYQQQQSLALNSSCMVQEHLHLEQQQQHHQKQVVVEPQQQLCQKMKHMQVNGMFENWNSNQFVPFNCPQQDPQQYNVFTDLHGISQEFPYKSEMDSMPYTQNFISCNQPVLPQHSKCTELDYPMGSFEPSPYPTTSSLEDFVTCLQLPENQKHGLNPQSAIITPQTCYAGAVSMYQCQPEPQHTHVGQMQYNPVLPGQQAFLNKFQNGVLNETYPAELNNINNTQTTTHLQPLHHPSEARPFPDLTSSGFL
Experiment: AHR luciferase reporter assay in HAHLH cells
Conditions: 8 h, % of maximal luciferase activity with dioxin 10 nM, read-out: EC50 AHR transactivation
Kindly state pEC50 for each of the entries shown.
Answers are plain numbers, as −log10 of the molar value.

Fc1ccc(-c2cn3cc(C(F)(F)F)cc(Cl)c3n2)cc1 [X15695]; 9.85

I would be grateful if you could provide pEC50 for each of the following entries.
1. Cc1cc(Cl)c2nc(-c3ccc(F)cc3)cn2c1 [X19724]
2. Cc1cccn2cc(-c3ccc(F)cc3)nc12 [X19167]
3. Clc1cc2c(cc1Cl)Oc1cc(Cl)c(Cl)cc1O2 [Dioxin, reference compound]
4. Cc1cc(Cl)c2nc(-c3ccccc3)cn2c1 [X19728]

[8.86, 6.76, 8.91, 8.40]
